Catalogue of binders with associated Affinity ELISA CPE mutant ratio (1:3, pH 6.0/7.4)
# System: T1, Ax1 protein, extracellular domain (human, UniProt P30530 26-451)
# T1 construct: extracellular domain; also called Axl; Ark
# T1 sequence (looked up): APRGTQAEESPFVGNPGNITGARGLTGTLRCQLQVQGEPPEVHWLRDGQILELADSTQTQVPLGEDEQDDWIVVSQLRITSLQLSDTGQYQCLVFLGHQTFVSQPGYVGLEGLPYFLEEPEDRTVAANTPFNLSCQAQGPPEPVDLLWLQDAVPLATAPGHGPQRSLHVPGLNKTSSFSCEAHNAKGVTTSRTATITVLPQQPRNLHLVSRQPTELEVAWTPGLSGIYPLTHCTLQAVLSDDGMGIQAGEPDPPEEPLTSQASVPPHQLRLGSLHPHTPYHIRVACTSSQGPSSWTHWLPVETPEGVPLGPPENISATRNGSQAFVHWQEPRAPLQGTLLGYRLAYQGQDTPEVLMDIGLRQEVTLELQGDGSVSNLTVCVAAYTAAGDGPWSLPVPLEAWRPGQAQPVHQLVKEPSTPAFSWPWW
# Experiment summary: ELISA, mutant diluted 1:3
A bare number is all that is needed in reply.

Binder: LC-A034Q (antibody, V domains shown, CPE single point mutant) VH: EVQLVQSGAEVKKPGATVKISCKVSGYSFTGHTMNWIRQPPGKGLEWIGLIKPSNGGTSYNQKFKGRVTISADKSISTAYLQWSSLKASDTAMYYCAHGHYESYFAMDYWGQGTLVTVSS VL: DIQMTQSPSSLSASVGDRVTITCKASQDVSSAVQWYQQKPGQAPRLLIYWASTRHTGVPSRFSGSGSGTEFTLTISSLQPDDFATYYCQEHFSTPLTFGQGTKVEIK
Quantitative readout: 2

Task: Please indicate Affinity ELISA CPE mutant ratio (1:3, pH 6.0/7.4) recorded for HC-F105T (antibody, V domains shown, CPE single point mutant) VH: EVQLVQSGAEVKKPGATVKISCKVSGYSFTGHTMNWIRQPPGKGLEWIGLIKPSNGGTSYNQKFKGRVTISADKSISTAYLQWSSLKASDTAMYYCAHGHYESYTAMDYWGQGTLVTVSS VL: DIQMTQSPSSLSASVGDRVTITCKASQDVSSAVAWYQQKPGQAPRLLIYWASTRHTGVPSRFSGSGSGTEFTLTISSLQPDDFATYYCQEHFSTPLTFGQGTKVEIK
Output: 3.46

Task: Please indicate Affinity ELISA CPE mutant ratio (1:3, pH 6.0/7.4) recorded for HC-B102F (antibody, V domains shown, CPE single point mutant; printed B102, read as E102 (other rows print HC-E102x)) VH: EVQLVQSGAEVKKPGATVKISCKVSGYSFTGHTMNWIRQPPGKGLEWIGLIKPSNGGTSYNQKFKGRVTISADKSISTAYLQWSSLKASDTAMYYCAHGHYFSYFAMDYWGQGTLVTVSS VL: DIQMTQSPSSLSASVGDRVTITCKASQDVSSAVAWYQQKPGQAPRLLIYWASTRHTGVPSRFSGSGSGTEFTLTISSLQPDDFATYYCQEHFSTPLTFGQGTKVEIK
Output: 1.88
